molecular target: Caspase-3 (Homo sapiens); assay type: functional;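 note: Dose-response selectivity test against caspase-3 for candidate inhibitors of sentrin-specific proteases (SENPs)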
Sequence (P42574 29-175 limits assumed): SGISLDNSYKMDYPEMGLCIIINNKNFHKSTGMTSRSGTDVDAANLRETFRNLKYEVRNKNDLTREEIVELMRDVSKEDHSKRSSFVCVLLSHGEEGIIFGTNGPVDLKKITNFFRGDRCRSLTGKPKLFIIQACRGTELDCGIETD
Sequence (P42574 176-277 limits assumed): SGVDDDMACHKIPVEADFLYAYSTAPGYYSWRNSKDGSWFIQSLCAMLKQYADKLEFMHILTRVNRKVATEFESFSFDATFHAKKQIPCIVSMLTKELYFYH
Calls of active or inactive are those of the source.
// values below are reported IC50

Examples with their reported IC50 follow.
Req: Please report the recorded IC50 for `O=C(Nc1nccs1)c1ccc(-c2ccccc2Cl)o1` .
Resp: 22 µM (active)

Req: Please report the recorded IC50 for `O=C(CCCc1ccccc1)c1ccccc1` .
Resp: 13.5 µM (active)

Next:
Req: Please report the recorded IC50 for `Cc1cccc(N=Nc2ccc(N(C)C)cc2)c1` .
Resp: 5.57 µM (active)

Req: Please report the recorded IC50 for `Cc1cccc(-c2cc3nc4c(c(N5CCOCC5)n3n2)CCCC4)c1` .
Resp: 12.4 µM (active)

Req: Please report the recorded IC50 for `Oc1ccccc1/C=C/c1noc(-c2ccccc2O)n1` .
Resp: 39.7 µM (active)

Req: Please report the recorded IC50 for `COc1ccccc1N1C(=O)Cc2ccccc2C1=O` .
Resp: 4.61 µM (active)

Req: Please report the recorded IC50 for `CCOC(=O)c1c(C)[nH]c(N=Nc2cccc(OC)c2)c1C` .
Resp: 29.1 µM (active)

====

Biological target: UniProtKB P10520
Sequence (P10520 whole entry): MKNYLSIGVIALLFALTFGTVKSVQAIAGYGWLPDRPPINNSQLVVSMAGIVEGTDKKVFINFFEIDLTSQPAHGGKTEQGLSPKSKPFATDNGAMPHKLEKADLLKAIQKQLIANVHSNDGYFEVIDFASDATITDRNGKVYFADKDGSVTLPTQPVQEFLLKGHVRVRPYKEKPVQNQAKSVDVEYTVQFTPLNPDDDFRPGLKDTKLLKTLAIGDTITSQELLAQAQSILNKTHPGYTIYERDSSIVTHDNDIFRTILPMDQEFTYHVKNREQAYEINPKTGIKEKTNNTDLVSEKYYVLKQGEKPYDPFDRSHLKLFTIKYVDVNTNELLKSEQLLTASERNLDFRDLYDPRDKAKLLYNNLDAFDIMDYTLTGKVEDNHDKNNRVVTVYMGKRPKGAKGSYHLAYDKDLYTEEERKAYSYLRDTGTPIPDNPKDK
Experiment: viability-normalized secreted streptokinase activity reduction – plasminogen activation absorbance, OD405, dose response (AID 1914);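 note: secreted streptokinase activity via plasminogen activation per viability signal from cell pellet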
Type: functional, Streptococcus pyogenes M1 GAS
The source made the active and inactive calls.
// values below are reported EC50

Examples with their reported EC50 follow.
Req: Please report the recorded EC50 for CCOC(=O)c1c(C)n(C)c2ccc(OCC(O)Cn3nc(C)c(Br)c3C)cc12 (stereo not given) .
Resp: > 150 µM (not active)

Req: Please report the recorded EC50 for `O=C1/C(=C/c2cccnc2)S/C(=N/Cc2ccccc2)N1Cc1ccccc1` .
Resp: 14.7 µM (active)

Req: Please report the recorded EC50 for `Cc1nn(-c2ccccc2)c(C)c1/C=N/n1c(S)nnc1-c1ccc(C(C)(C)C)cc1` .
Resp: > 150 µM (not active)

Req: Please report the recorded EC50 for `CCOC(=O)c1[nH]c2ccc(F)cc2c1NC(=O)c1ccccc1C(=O)O` .
Resp: > 150 µM (not active)

Req: Please report the recorded EC50 for `O=c1[nH]c2ccc(Cl)cc2c(-c2ccccc2)c1N1CCN(c2ccccn2)CC1` .
Resp: 3.83 µM (active)

Req: Please report the recorded EC50 for `O=C1Nc2ccccc2S/C1=C/Nc1cccc(Cl)c1` .
Resp: > 150 µM (not active)

Req: Please report the recorded EC50 for CC(Oc1ccc(Cl)cc1Cl)C(=O)Nc1ccc2oc(-c3ccncc3)nc2c1 (stereo not given) .
Resp: > 150 µM (not active)

Req: Please report the recorded EC50 for `O=C(NCc1ccco1)c1cc2ccc(O)cc2oc1=O` .
Resp: > 150 µM (not active)

Next:
Req: Please report the recorded EC50 for `O=C(Nc1cccc(C(F)(F)F)c1)c1cc2c(=O)c3ccccc3oc2nc1C(F)(F)F` .
Resp: 43.3 µM (inconclusive)

Req: Please report the recorded EC50 for `CCOC(=O)c1cnn(-c2nc(-c3ccccc3)cs2)c1C(F)(F)F` .
Resp: 15.6 µM (active)

Source listed as ChEMBL document CHEMBL1201862.
